Hi there, I'd appreciate the recorded pIC50 for every entry that follows.
target: Leucyl-tRNA synthetase (LeuRS) (Escherichia coli (strain K12), UniProt P07813); experiment: Leucyl-tRNA synthetase enzyme inhibition (AMP-Glo; single point % inhibition at 100 μM and IC50); assay type: biochemical; conditions: E. coli LeuRS; read-out: Enzyme Inhibition - IC50, E. coli LeuRS
Sequence (P07813 whole entry, looked up): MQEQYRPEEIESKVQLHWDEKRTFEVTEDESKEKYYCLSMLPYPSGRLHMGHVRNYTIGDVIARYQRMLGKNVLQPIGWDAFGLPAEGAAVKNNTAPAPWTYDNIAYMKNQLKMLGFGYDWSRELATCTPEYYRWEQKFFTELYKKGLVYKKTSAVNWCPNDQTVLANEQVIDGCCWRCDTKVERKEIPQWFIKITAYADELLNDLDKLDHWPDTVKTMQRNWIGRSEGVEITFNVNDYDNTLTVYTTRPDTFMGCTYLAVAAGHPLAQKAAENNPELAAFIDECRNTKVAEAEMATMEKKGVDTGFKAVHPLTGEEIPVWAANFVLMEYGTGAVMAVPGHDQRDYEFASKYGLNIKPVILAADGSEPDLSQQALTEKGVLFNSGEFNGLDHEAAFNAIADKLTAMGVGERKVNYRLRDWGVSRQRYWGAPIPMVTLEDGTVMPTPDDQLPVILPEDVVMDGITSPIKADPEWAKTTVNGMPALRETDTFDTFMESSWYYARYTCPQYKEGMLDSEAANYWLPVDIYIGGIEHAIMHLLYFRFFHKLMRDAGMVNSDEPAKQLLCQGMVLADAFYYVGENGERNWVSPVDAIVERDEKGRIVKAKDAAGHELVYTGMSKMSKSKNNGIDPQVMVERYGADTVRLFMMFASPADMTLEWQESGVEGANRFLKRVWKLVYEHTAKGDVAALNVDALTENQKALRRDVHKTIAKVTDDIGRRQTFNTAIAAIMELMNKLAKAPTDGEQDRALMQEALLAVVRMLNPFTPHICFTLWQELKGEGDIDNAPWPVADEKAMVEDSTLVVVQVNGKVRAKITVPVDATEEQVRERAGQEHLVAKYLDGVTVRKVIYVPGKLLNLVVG
Where a name gives a salt, the structure may show the parent alone.
API: returns pIC50 as number; meaning -log10 of concentration in mol/L.

Consider CC(C)C[C@H](N)C(=O)N=[S@@](N)(=O)c1c(F)cccc1F . Its measured pIC50 is 5.35

Consider CC(C)C[C@H](N)C(=O)N=S(N)(=O)c1cc2sccc2s1 (stereo partly drawn) . Its measured pIC50 is 6.35

Consider CC(C)C[C@H](N)C(=O)N=S(N)(=O)c1csc2ccsc12 (stereo partly drawn) . Its measured pIC50 is 7.48

Consider CC(C)C[C@H](N)C(=O)N=S(N)(=O)c1cccc(Cl)c1F (stereo partly drawn) [ANASIA-001, 2,2,2-trifluoroacetate] . Its measured pIC50 is 6.37

Consider CC(C)C[C@H](N)C(=O)N=[S@@](N)(=O)c1sccc1C(C)C . Its measured pIC50 is 5.20

Consider CC(C)C[C@H](N)C(=O)N=S(N)(=O)c1ccc(Cl)c2ccccc12 (stereo partly drawn) . Its measured pIC50 is 5.65

Consider CC(C)C[C@H](N)C(=O)N=S(N)(=O)c1ccc2c(c1)CCO2 (stereo partly drawn) . Its measured pIC50 is 5.19

Consider CC(C)C[C@H](N)C(=O)N=[S@@](N)(=O)c1cccs1.Cl [ANASIA-007-2, hydrochloride] . Its measured pIC50 is 5.31

Consider CC(C)C[C@H](N)C(=O)N=[S@@](N)(=O)c1cccc(C(C)C)c1 . Its measured pIC50 is 6.13

Consider CC(C)C[C@H](N)C(=O)N=[S@@](N)(=O)c1ccc(F)c2ccccc12 . Its measured pIC50 is 5.39

Consider CC(C)C[C@H](N)C(=O)N=S(N)(=O)c1cccc2ccccc12 (stereo partly drawn) . Its measured pIC50 is 5.52

Consider CC(C)C[C@H](N)C(=O)N=[S@@](N)(=O)c1ccsc1 . Its measured pIC50 is 5.70

Consider CC(C)C[C@H](N)C(=O)N=[S@@](N)(=O)c1scc(Br)c1Br . Its measured pIC50 is 5.89

Consider CC(C)C[C@H](N)C(=O)N=[S@](N)(=O)c1ccccc1F . Its measured pIC50 is 5.31

Consider CC(C)C[C@H](N)C(=O)N=S(N)(=O)c1ccsc1F (stereo partly drawn) . Its measured pIC50 is 7.00

Consider C=CCc1cccc(S(N)(=O)=NC(=O)[C@@H](N)CC(C)C)c1 (stereo partly drawn) [ANASIA-085, hydrochloride] . Its measured pIC50 is 6.23

Consider CC(C)C[C@H](N)C(=O)N=[S@](N)(=O)c1ccccc1.Cl [ANASIA-003-1, hydrochloride] . Its measured pIC50 is 7.21

Consider CC(C)C[C@H](N)C(=O)N=[S@@](N)(=O)c1csc(C#N)c1.Cl . Its measured pIC50 is 6.58

Consider CC(C)C[C@H](N)C(=O)N=[S@@](N)(=O)c1cccc(Oc2ccccc2)c1 . Its measured pIC50 is 6.01

Consider CC(C)C[C@H](N)C(=O)N=[S@@](N)(=O)c1cc(F)ccc1F . Its measured pIC50 is 5.20

Consider Cc1cccc([S@](N)(=O)=NC(=O)[C@@H](N)CC(C)C)c1 . Its measured pIC50 is 6.82

Consider CC(C)C[C@H](N)C(=O)N=[S@@](N)(=O)c1cccc(Cl)c1F . Its measured pIC50 is 5.45

Consider CC1CCC(N)(C(=O)N=S(N)(=O)c2ccccc2)C1 (stereo not drawn) . Its measured pIC50 is 5.31

Consider Cc1sccc1[S@](N)(=O)=NC(=O)[C@@H](N)CC(C)C . Its measured pIC50 is 5.09

Consider Cc1csc([S@](N)(=O)=NC(=O)[C@@H](N)CC(C)C)c1C . Its measured pIC50 is 5.49

Consider CC(C)C[C@H](N)C(=O)N=[S@@](N)(=O)c1cc(C#N)cs1 . Its measured pIC50 is 5.85

Consider CCOc1cccc(S(N)(=O)=NC(=O)[C@@H](N)CC(C)C)c1 (stereo partly drawn) . Its measured pIC50 is 6.26

Consider CC(C)C[C@H](N)C(=O)N=[S@@](N)(=O)c1cscc1-c1ccccc1 . Its measured pIC50 is 5.43

Consider CC(C)C[C@H](N)C(=O)N=S(N)(=O)c1ccsc1 (stereo partly drawn) . Its measured pIC50 is 6.84

Consider Cc1cnc(S(N)(=O)=NC(=O)[C@@H](N)CC(C)C)s1 (stereo partly drawn) . Its measured pIC50 is 5.05

Consider CC(C)C[C@H](N)C(=O)N=S(N)(=O)c1ccccc1 (stereo partly drawn) . Its measured pIC50 is 7.03

Consider CC(C)C[C@H](N)C(=O)N=[S@@](N)(=O)c1cccc(Oc2ccc(Cl)cc2)c1 . Its measured pIC50 is 5.89

Consider Cc1nc([S@](N)(=O)=NC(=O)[C@@H](N)CC(C)C)sc1C . Its measured pIC50 is 5.46

Consider CC(C)C[C@H](N)C(=O)N=[S@@](N)(=O)c1ccccn1 . Its measured pIC50 is 5.60

Consider CC(C)C[C@H](N)C(=O)N=[S@@](N)(=O)c1scc(Cl)c1Cl . Its measured pIC50 is 6.31

Consider CC(C)C[C@H](N)C(=O)N=[S@@](N)(=O)c1sc(Cl)cc1Cl . Its measured pIC50 is 5.12
